target: aurora A kinase (AURKA) (Homo sapiens); construct: purchased BPS Bioscience (assay run externally by the vendor); assay: ADP-Glo kinase assay, Aurora A; assay type: biochemical; details: Log[nM] 3.5; Set3
Hi, to clarify the labels: 1 covers Aurora A % Activity Set3 from 70% upward, -1 covers anything below 70%.

query_smiles	answer_label
c1ccc(Cc2ccc(Nc3ncnc4[nH]ccc34)cc2)cc1	-1
Clc1ccccc1Nc1ncnc2[nH]ccc12	1

Exam item: Does Aurora A % Activity Set3 meet or surpass 70% for Fc1cc(Nc2ncnc3[nH]ccc23)ccc1Cl ?
Marked response: -1

Exam item: Does Aurora A % Activity Set3 meet or surpass 70% for Cc1ccc(Nc2ncnc3[nH]ccc23)cc1 ?
Marked response: -1

----------
Property: EGFR % Activity Set3; scope: individual molecules
target: EGFR (Homo sapiens); assay: ADP-Glo kinase assay, EGFR; type: biochemical; set-up: purchased BPS Bioscience (assay run externally by the vendor); settings: Log[nM] 2.5; Set3
Sequence (P00533 25-1210): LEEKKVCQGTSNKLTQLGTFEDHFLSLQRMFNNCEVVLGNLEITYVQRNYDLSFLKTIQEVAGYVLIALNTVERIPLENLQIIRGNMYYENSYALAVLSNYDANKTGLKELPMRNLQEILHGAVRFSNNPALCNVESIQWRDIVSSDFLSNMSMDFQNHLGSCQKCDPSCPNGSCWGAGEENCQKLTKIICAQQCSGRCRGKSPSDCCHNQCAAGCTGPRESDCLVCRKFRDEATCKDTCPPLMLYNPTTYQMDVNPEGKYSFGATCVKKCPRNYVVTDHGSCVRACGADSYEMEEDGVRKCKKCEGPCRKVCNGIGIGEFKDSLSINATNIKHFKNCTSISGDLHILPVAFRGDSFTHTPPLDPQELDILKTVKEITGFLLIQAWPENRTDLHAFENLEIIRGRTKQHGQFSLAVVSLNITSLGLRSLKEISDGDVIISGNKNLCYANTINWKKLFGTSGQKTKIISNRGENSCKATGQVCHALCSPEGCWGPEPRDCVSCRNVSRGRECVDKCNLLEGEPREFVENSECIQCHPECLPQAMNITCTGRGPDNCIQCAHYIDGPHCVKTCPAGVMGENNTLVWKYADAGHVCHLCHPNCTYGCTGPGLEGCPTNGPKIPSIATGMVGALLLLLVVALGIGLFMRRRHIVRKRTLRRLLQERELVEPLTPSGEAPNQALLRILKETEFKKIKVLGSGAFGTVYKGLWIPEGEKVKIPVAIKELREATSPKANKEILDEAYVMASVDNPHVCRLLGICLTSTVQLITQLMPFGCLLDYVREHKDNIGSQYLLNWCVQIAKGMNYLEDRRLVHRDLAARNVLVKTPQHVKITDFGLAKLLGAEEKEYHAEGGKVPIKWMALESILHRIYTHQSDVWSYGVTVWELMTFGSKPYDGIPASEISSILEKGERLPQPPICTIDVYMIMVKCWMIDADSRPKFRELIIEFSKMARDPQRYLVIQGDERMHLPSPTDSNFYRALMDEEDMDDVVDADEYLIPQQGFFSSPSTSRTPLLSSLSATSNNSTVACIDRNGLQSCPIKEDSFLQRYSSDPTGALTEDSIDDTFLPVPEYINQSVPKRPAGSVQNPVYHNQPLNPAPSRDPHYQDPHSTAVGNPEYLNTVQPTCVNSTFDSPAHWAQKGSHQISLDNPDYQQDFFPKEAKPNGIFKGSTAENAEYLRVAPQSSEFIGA
The response must be a number in % with no trailing unit.

Study these solved cases before continuing.
query_smiles	EGFR % Activity Set3 / %
FC(F)(F)c1cccc(Nc2ncnc3[nH]ccc23)c1	15
Clc1ccc(Nc2ncnc3[nH]ccc23)cc1Br	3
Cc1ccc(Nc2ncnc3[nH]ccc23)cc1	67
Brc1cccc(Nc2ncnc3[nH]ccc23)c1	3
Fc1cc(Nc2ncnc3[nH]ccc23)ccc1Cl	3
c1ccc(Oc2ccc(Nc3ncnc4[nH]ccc34)cc2)cc1	29

Looking up Clc1ccc(Nc2ncnc3[nH]ccc23)cc1Cl , I see its EGFR % Activity Set3 listed as 5

Looking up Cc1cccc(Nc2ncnc3[nH]ccc23)c1 , I see its EGFR % Activity Set3 listed as 8

Looking up Nc1nc(Nc2cccc(Br)c2)c2cc[nH]c2n1 , I see its EGFR % Activity Set3 listed as 53

Looking up Brc1ccc(Nc2ncnc3[nH]ccc23)cc1 , I see its EGFR % Activity Set3 listed as 28

Looking up COc1ccc(Nc2ncnc3[nH]ccc23)cc1 , I see its EGFR % Activity Set3 listed as 97

Looking up Clc1ccc(Nc2ncnc3[nH]ccc23)cc1 , I see its EGFR % Activity Set3 listed as 22

Looking up c1ccc(Cc2ccc(Nc3ncnc4[nH]ccc34)cc2)cc1 , I see its EGFR % Activity Set3 listed as 16

Looking up c1ccc(Nc2ncnc3[nH]ccc23)cc1 , I see its EGFR % Activity Set3 listed as 40

Looking up Clc1cccc(Nc2ncnc3[nH]ccc23)c1 , I see its EGFR % Activity Set3 listed as 6

Looking up Clc1ccccc1Nc1ncnc2[nH]ccc12 , I see its EGFR % Activity Set3 listed as 57

Looking up Cc1ccccc1Nc1ncnc2[nH]ccc12 , I see its EGFR % Activity Set3 listed as 84

----------
target: aurora A kinase (AURKA) (Homo sapiens, UniProt O14965); construct: purchased BPS Bioscience (assay run externally by the vendor); experiment: ADP-Glo kinase assay, Aurora A; assay type: biochemical; conditions: Log[nM] 2.5; Set1
Sequence (O14965 whole entry): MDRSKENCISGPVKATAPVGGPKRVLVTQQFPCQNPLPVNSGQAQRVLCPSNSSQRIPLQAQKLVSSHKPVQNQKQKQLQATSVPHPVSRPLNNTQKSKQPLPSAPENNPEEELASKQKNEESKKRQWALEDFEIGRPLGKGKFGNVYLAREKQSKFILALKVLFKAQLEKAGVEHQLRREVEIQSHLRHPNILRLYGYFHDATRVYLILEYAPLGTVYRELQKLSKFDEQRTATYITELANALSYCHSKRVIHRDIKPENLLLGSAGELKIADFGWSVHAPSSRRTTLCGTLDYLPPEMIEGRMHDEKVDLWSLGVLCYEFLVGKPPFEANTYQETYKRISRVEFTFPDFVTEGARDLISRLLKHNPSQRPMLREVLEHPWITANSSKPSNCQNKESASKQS
Property: Aurora A % Activity Set1; scope: individual molecules
The response must be a number in % with no trailing unit.

query_smiles	Aurora A % Activity Set1 [%]
Brc1ccc(Nc2ncnc3[nH]ccc23)cc1	100

Next up:
Looking up Brc1cccc(Nc2ncnc3[nH]ccc23)c1 , I see its Aurora A % Activity Set1 listed as 94
